TARGET: Human immunodeficiency virus type 1 protease (Human immunodeficiency virus 1, UniProt Q72874)
What Ki was measured for each of the following?
Provide a numeric answer, followed by its unit.

Prompt: Can you share its Ki? I mean this molecule: CC(C)(C)NC(=O)c1ccccc1C[C@@H](O)[C@H](CSc1ccc2ccccc2c1)NC(=O)c1cccc2cnccc12
Completion: 800 nM

Prompt: // query Ki value for entry Cc1c(C(=O)N[C@@H](CSc2ccc3ccccc3c2)[C@H](O)Cc2ccccc2C(=O)NC(C)(C)C)cccc1[N+](=O)[O-]
Completion: 540 nM

Prompt: Any idea what Ki was measured for Cc1c(N)cccc1C(=O)N[C@@H](CSc1ccc2ccccc2c1)[C@H](O)Cc1ccccc1C(=O)NC(C)(C)C ?
Completion: 49 nM
